Readings of Activity (relative rate of hydrolysis) for the listed compounds
# target or test system: WT HvExoI (Hordeum vulgare, UniProt Q9XEI3)
# Sequence (Q9XEI3 entry or part of it): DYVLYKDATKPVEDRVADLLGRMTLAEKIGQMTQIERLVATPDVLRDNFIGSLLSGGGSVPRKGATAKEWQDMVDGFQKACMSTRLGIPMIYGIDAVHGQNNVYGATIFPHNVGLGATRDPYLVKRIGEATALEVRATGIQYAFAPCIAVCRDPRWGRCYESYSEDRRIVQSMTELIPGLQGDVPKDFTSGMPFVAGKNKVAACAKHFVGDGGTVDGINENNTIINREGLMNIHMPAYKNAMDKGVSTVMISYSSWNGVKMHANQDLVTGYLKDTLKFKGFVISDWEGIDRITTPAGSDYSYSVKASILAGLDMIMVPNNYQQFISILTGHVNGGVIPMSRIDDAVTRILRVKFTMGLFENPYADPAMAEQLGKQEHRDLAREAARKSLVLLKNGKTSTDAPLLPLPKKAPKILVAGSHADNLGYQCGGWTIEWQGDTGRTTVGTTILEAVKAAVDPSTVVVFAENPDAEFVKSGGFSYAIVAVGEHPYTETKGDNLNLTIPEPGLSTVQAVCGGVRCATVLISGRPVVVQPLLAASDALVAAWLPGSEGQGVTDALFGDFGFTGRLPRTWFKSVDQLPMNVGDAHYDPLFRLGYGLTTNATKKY
# protocol notes: Relative rates of hydrolysis of poly-, oligosaccharides and aryl-glycosides
# Assay type: biochemical
# test context: substance is the substrate, HvExoI at 50 pmoles, nd = activity not detected

>  <compound>
OC[C@H]1O[C@@H](O[C@H]2[C@H](O)[C@@H](O)[C@H](O[C@H]3[C@H](O)[C@@H](O)[C@H](O[C@H]4[C@H](O)[C@@H](O)[C@H](O[C@H]5[C@H](O)[C@@H](O)[C@H](O[C@H]6[C@H](O)[C@@H](O)C(O)O[C@@H]6CO)O[C@@H]5CO)O[C@@H]4CO)O[C@@H]3CO)O[C@@H]2CO)[C@H](O)[C@@H](O)[C@@H]1O (stereo partly shown)

>  <Activity (relative rate of hydrolysis)>
9.1 ± 0.2 μmole/min per mg protein

$$$$
>  <compound>
OC[C@H]1O[C@@H](O[C@@H]2[C@@H](O)[C@H](O[C@@H]3[C@@H](O)[C@H](O[C@@H]4[C@@H](O)[C@H](O[C@@H]5[C@@H](O)[C@H](O)O[C@H](CO)[C@H]5O)O[C@H](CO)[C@H]4O)O[C@H](CO)[C@H]3O)O[C@H](CO)[C@H]2O)[C@H](O)[C@@H](O)[C@@H]1O

>  <Activity (relative rate of hydrolysis)>
11.7 ± 0.5 μmole/min per mg protein

$$$$
>  <compound>
OC[C@H]1O[C@@H](O[C@H]2[C@H](O)[C@@H](O)[C@H](O[C@H]3[C@H](O)[C@@H](O)[C@H](O[C@H]4[C@H](O)[C@@H](O)C(O)O[C@@H]4CO)O[C@@H]3CO)O[C@@H]2CO)[C@H](O)[C@@H](O)[C@@H]1O (stereo partly shown)

>  <Activity (relative rate of hydrolysis)>
8.5 ± 0.7 μmole/min per mg protein

$$$$
>  <compound>
OC[C@H]1O[C@@H](O[C@@H]2[C@@H](O)[C@H](O[C@@H]3[C@@H](O)[C@H](O[C@H]4[C@H](O)[C@@H](CO)OC(O)[C@@H]4O)O[C@H](CO)[C@H]3O)O[C@H](CO)[C@H]2O)[C@H](O)[C@@H](O)[C@@H]1O (stereo partly shown)

>  <Activity (relative rate of hydrolysis)>
12.3 ± 0.5 μmole/min per mg protein

$$$$

Reference source: paper PMC9508125
